Values were extracted from patent US20160200799A1.

Give measured Neutralizing activity (%) at 100 µg/ml for each item. Keep answers brief.
# subject.of.test: Influenza virus A/Brisbane/59/2007 (H1N1) (Influenza A virus A/Brisbane/59/2007 (H1N1))
# method.notes: cell-based or functional assay
Only the number, expressed in %, is required.

Query block: Reported Neutralizing activity (%) at 100 µg/ml, binder Group 80 representative clone F083-373, Fab-PP-type antibody (Fab, V domains shown) VH: QVQLVQSGADVKKPGSSVRVSCKASGRTFGNYAISWVRQAPGQGLEWMGGITPIFGAANYAQKFQGRVTISADLSTTMVYMDLSSLRSDDTAFYYCAGHPTYYYGSPMDYWGQGTLVTVSS VL: EIVLTQSPSSLSASVGDRVTITCRASQSIATYLNWYQQKPGKAPNLLIYAASNLQSGVPSRFSGSGSGTDFTLTISSLQPEDFATYVCLQSYSATLTFGGGTKVEIK : ____
Result block: 70.4

Query block: Reported Neutralizing activity (%) at 100 µg/ml, binder Group 52 representative clone F083-328, Fab-PP-type antibody (Fab, V domains shown) VH: QVQLVQSGAEVKKPGSSVKLSCKASGGTLRSYALSWVRQAPGEGLEWMGGISAIFNTATYAQNVQGRVTITADESTNTFYLEVSSLRSDDTAVYYCATSGTYYVSFFDYWGQGTLVTVSS VL: DIVLTQSPSTLSASVGDRVTLTCRASQSIGSLMAWYQQQPGKPPKLLIYRASNLETGVPSRFTGSGSGTEFALTISSLQPDDVGTYYCQHFKTFSRTFGQGTKVEIK : ____
Result block: 100

Query block: Reported Neutralizing activity (%) at 100 µg/ml, binder Group 57 representative clone F083-103, Fab-PP-type antibody (Fab, V domains shown) VH: QVQLQQSGADVKKAGSSVKVSCKASGRTFGNYAISWVRQAPGQGLEWMGGITPIFGAANYAQKFQGRVTISADLSTRMVYMDLSSLRSDDTAFYYCAGHPTYHYGSAMDYWGQGTLVTVSS VL: QSVLTQPPSVSAAPGQKVTITCSGSSSNIGNNYVSWYQQLPGTAPKLLISEGSNRPSGIPDRFSGSKSGTSATLGITGLQTGDEATYYCATWDDSLSVVLFGGGTRLTVLS : ____
Result block: 84.2

Query block: Reported Neutralizing activity (%) at 100 µg/ml, binder Group 55 representative clone F083-305, Fab-PP-type antibody (Fab, V domains shown) VH: EVQLVESGAEVKKPGSSVKVSCKASGSIFSNYAISWVRQAPGQGLEWMGGIVPMFGTTRFAQKFQGRVTITADESRSTAYMELNNLISEDTAVYYCARAPLIYNWYFDLWGRGTLVTVSS VL: EIVLTQSPSFVSASVGDRVSITCRASQGISSWLAWYQQKPGKAPRLLIYGASNLQSGVPSRFSGSGSGTDYTLTINSLQPEDFATYYCQQARTFPVTFGQGTKLEIK : ____
Result block: 96.1

Query block: Reported Neutralizing activity (%) at 100 µg/ml, binder Group 64 representative clone F083-301, Fab-PP-type antibody (Fab, V domains shown) VH: QVQLVQSGAEVKKPGSSVKVSCKASGGIFNSNAISWVRQAPGQGLEWMGGIIGIFGTANYAQKFQGRVTIAADQSTNTVFMELSSLTSEDTAVYFCARSRGYSFGYGTDYFDYWGQGTLVTVSS VL: DIVMTQSPSTLSASVGDRVTITCRASQSISSWLAWYQQAPGKAPKLLIYEASKLQSGVPSRFSATGSGTEFTLTIASLQPEDFAIYYCQHYEAYPFSFGPGTKLDVK : ____
Result block: 86.2
